System: P-gp (MDR1)
Assay: in vitro
Conditions: dog, MDCK-MDR1
assay.endpoint: Papp A→B at 60 min
Give your result as the value with the unit written after it.

In: For c1ccc2c(c1)Nc1ccccc1S2 [10H-phenothiazine] , what is its reported Papp A→B at 60 min?
Out: 53.8 ×10⁻⁶ cm/s

----------
Assay: in vitro
Settings: human, Caco-2
assay.endpoint: efflux ratio at 2 h
Give bare numbers.

In: For c1ccc2c(c1)Nc1ccccc1S2 [10H-phenothiazine] , what is its reported efflux ratio at 2 h?
Out: 0.88

----------
For each entry below, report its Papp B→A at 60 min value.
Test system: P-gp (MDR1)
Assay: in vitro
Details: dog, MDCK-MDR1, Permeability coefficient (Papp) MDCK-MDR1 cells (B -> A)
One number for each entry, in ×10⁻⁶ cm/s.

Answered examples (3):
compound: OCCOCCOCCN1CCN(CC(O)CN2c3ccccc3Sc3ccc(C(F)(F)F)cc32)CC1 (centres unmarked) [MT-016]
Papp B→A at 60 min (×10⁻⁶ cm/s): 10.3
--
compound: C=C[C@H]1C[N@@]2CC[C@H]1C[C@@H]2[C@@H](O)c1ccnc2ccc(OC)cc12 [Quinidine]
Papp B→A at 60 min (×10⁻⁶ cm/s): 44
--
compound: CC[C@H]1OC(=O)[C@H](C)[C@@H](O[C@H]2C[C@@](C)(OC)[C@@H](O)[C@H](C)O2)[C@H](C)[C@@H](O[C@@H]2O[C@H](C)C[C@H](N(C)C)[C@H]2O)[C@](C)(O)C[C@@H](C)C(=O)[C@H](C)[C@@H](O)[C@]1(C)O [Erythromycin]
Papp B→A at 60 min (×10⁻⁶ cm/s): 30.6

Could you now look at the following compound, please?
In: For CN1CCN(CCCN2c3ccccc3Sc3ccc(S(=O)(=O)N(C)C)cc32)CC1 [Thioproperazine Dimesilate] , what is its reported Papp B→A at 60 min?
Out: 3.56
